Ref: patent US10258038B2

TEST_DESCRIPTION: physchem
Assay type: physicochemical
TEST_PARAMETERS: reversed-phase C18 HPLC column, reversed-phase C18, acidic range pH 3.4 (formic acid), 55° C., read-out: log P
ASSAY_READOUT: chromatographic logP
Numbers only.

Annotate the molecule CCN(C(=O)c1ccccc1C(F)(F)F)c1ccn(-c2ncc(F)cc2F)n1 [Compound I-1-468] with its measured chromatographic logP. 3.23

###

TEST_DESCRIPTION: physchem
Format: physicochemical
TEST_PARAMETERS: HPLC, reversed-phase C18, acidic range pH 3.4 (formic acid), 55° C.
Param threshold (1) applies to log P; output Condition met when value >= threshold, Condition not met when value < threshold.

Test whether the molecule Nc1cnn(-c2c(F)cccc2F)n1 records log P of 1 or higher. Condition met

Does the reported log P for CC(=O)NC1=NN(c2c(F)cccc2F)CC1 fall at or above the 1 mark? Condition met

Hi, just wondering whether CC(=O)Nc1ccn(-c2c(F)cccc2F)n1 shows log P of 1 or higher. Condition met

Kindly determine if log P recorded for Nc1ccn(-c2ncc(F)cc2F)n1 is above or exactly 1. Condition not met

For this molecule, is measured log P 1 or higher? Nc1ccn(-c2c(F)cccc2F)n1 Condition met

Is it the case that O=C(Nc1cnn(-c2c(F)cccc2F)n1)c1ccccc1C(F)(F)F has log P reaching or exceeding 1? Condition met
